molecular target: human A1 AR (Homo sapiens, UniProt P30542); test: Radioligand competition binding (125I-ABA) to human A1 AR in CHO K1 cell membranes; conditions: A1 ± SEM, Ki from competition binding, 125I-ABA, CHO K1 cell membranes
Sequence (P30542 whole entry): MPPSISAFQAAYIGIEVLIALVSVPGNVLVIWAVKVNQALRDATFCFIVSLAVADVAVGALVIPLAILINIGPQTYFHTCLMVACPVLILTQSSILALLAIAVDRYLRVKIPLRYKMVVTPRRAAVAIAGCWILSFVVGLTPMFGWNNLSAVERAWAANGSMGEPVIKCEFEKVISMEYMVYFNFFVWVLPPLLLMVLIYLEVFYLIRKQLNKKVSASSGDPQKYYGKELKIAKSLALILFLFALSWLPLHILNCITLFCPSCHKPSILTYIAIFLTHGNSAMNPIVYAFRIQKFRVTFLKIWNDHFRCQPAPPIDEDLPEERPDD
endpointName: pKi
Hey, just a heads up that pKi is the negative log base 10 of the concentration in molar.

Solved entries (count: 2):
INSERT INTO assay_data (compound, measuredon, measurement) VALUES
  ('CCNC(=O)[C@H]1O[C@@H](n2cnc3c(N)nc(C#CCC4CCN(C(=O)OC(C)C)CC4)nc32)C(O)C1O (stereo in doubt)', 'human A1 AR (Homo sapiens, UniProt P30542)', 6.78),
  ('CCNC(=O)[C@H]1O[C@@H](n2cnc3c(N)nc(C#CCC4CCC(CC)CC4)nc32)C(O)C1O (stereo in doubt)', 'human A1 AR (Homo sapiens, UniProt P30542)', 7.69);

Here's the next entry for you.
Reported pKi of CCNC(=O)[C@H]1O[C@@H](n2cnc3c(N)nc(C#CCN4CCN(C(=O)OCC)CC4)nc32)C(O)C1O (stereo in doubt) : 7.80

----------
molecular target: A3 AR (Homo sapiens, UniProt P0DMS8); experiment: Radioligand competition binding (125I-ABA) to human A3 AR in HEK 293 cell membranes; conditions: A3 ± SEM, Ki from competition binding, 125I-ABA, HEK 293 cell membranes
Sequence (P0DMS8 whole entry): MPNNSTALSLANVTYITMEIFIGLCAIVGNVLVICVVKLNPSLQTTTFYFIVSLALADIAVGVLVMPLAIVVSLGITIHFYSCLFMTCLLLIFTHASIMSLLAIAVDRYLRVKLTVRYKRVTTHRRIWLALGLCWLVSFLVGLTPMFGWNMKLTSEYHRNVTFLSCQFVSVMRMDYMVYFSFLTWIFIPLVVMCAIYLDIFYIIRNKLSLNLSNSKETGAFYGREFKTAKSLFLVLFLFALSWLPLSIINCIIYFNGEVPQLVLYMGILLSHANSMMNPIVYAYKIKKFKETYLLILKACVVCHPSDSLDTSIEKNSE
endpointName: Ki (nM)
Report the value in nM with no unit label.

INSERT INTO results (molecule, endpointname, measurement) VALUES
  ('CCNC(=O)[C@H]1O[C@@H](n2cnc3c(N)nc(C#CCN4CCN(C(=O)OCC)CC4)nc32)C(O)C1O (stereo in doubt) [JR-3213]', 'Ki', 42.3),
  ('CCNC(=O)[C@H]1O[C@@H](n2cnc3c(N)nc(C#CC4(O)CCC(C(C)(C)C)CC4)nc32)C(O)C1O (stereo in doubt) [JR-3203]', 'Ki', 43.3);

Here's the next entry for you.
Entry CCNC(=O)[C@H]1O[C@@H](n2cnc3c(N)nc(C#CC4(O)CCCCC4C)nc32)C(O)C1O (single isomer, unassigned) [JR-3181B] ; assay system A3 AR (Homo sapiens, UniProt P0DMS8); Ki recorded at 38.9

----------
molecular target: A3 AR (Homo sapiens); experiment: Radioligand competition binding (125I-ABA) to human A3 AR in HEK 293 cell membranes; details: selectivity ratio A3 over A2A
endpointName: A3/A2A
Enter the number alone.

INSERT INTO assay_data (molecule, endpointname, measurement) VALUES
  ('CCNC(=O)[C@H]1O[C@@H](n2cnc3c(N)nc(C#CCC4CCC(C(=O)OCCN)CC4)nc32)C(O)C1O (stereo in doubt)', 'A3/A2A', 16.7),
  ('CCNC(=O)[C@H]1O[C@@H](n2cnc3c(N)nc(C#CC4(O)CCCCNC4=O)nc32)C(O)C1O (single isomer, unassigned) [JR-3243A]', 'A3/A2A', 2.6),
  ('CCNC(=O)C1OC(n2cnc3c(N)nc(C#CCC4CCNCC4)nc32)C(O)C1O (stereo not shown)', 'A3/A2A', 15.2),
  ('CCNC(=O)C1OC(n2cnc3c(N)nc(C#CC4(N)CCCCC4)nc32)C(O)C1O (stereo not shown)', 'A3/A2A', 9.3),
  ('CCNC(=O)[C@H]1O[C@@H](n2cnc3c(N)nc(C#C[C@@]4(O)CCC[C@@H](C)C4)nc32)C(O)C1O (stereo partly shown)', 'A3/A2A', 1.8);

Reported A3/A2A of CCNC(=O)[C@H]1O[C@@H](n2cnc3c(N)nc(C#CCN4CC5CC4CN5C(=O)OC(C)(C)C)nc32)C(O)C1O (stereo in doubt) : 0.0

Reported A3/A2A of CCNC(=O)[C@H]1O[C@@H](n2cnc3c(N)nc(C#CCC4CCC(C)(C(=O)OC)CC4)nc32)C(O)C1O (single isomer, unassigned) [JR-3067A] : 30.0

Reported A3/A2A of CCNC(=O)[C@H]1O[C@@H](n2cnc3c(N)nc(C#CCC4CCC(C)(C(=O)OC)CC4)nc32)C(O)C1O (single isomer, unassigned) [JR-3067B] : 53.0
